# key: entry, value: microsomal CLint at 1 uM
assay: Metabolic stability in human hepatic microsome; assay type: in vitro ADME; details: human, microsomes, pH 7.4, CL NADPH(+)
Starred links: 1 amine or outer side, 2 acyl side, 3 side chain; linkers in the order of their positions; H or OH if unused. Positions of bridges follow the written chain, without caps; N, C: chain ends. Non-standard residues stand in square brackets, D forms with d. Residues, ends and D or L forms follow the SMILES beside them. *: point of attachment. NEtPhe = CCN[C@@H](Cc1ccccc1)C(=O)O; NMeF = CN[C@@H](Cc1ccccc1)C(=O)O; NMeI = CC[C@H](C)[C@H](NC)C(=O)O; NMeβAla = CN(CCC(=O)[*:2])[*:1]; NMeL = CN[C@@H](CC(C)C)C(=O)O; NMeV = CN[C@H](C(=O)O)C(C)C; NMeA = CN[C@@H](C)C(=O)O; Piperidide = C1CCN(*)CC1; dNMeA = CN[C@H](C)C(=O)O; Sar = CNCC(=O)O
observation-type: microsomal CLint at 1 uM (µL/min/mg)

CC[C@H](C)[C@H]1C(=O)NCC(=O)N(C)[C@@H](Cc2ccccc2)C(=O)N[C@@H]([C@@H](C)O)C(=O)N(C)[C@@H](C)C(=O)N[C@@H](CC(C)C)C(=O)N[C@H](C(=O)N2CCCCC2)CC(=O)N(C)[C@H](C)C(=O)N(C)[C@@H](C)C(=O)N[C@@H](Cc2ccccc2)C(=O)N(C)[C@@H](CC(C)C)C(=O)N[C@@H](C(C)C)C(=O)N1C [DP-93] ([dNMeA][NMeA]F[NMeL]V[NMeI]G[NMeF]T[NMeA]LD-Piperidide; lactam N-12)
17
CC[C@H](C)[C@H]1C(=O)N[C@@H](C)C(=O)N(C)[C@@H](CC(C)C)C(=O)N(C)[C@@H](Cc2ccccc2)C(=O)N[C@@H]([C@@H](C)O)C(=O)N(C)[C@@H](Cc2ccccc2)C(=O)N(C)[C@@H](CC(C)C)C(=O)N(C)[C@@H](CC(C)C)C(=O)N[C@H](C(=O)N2CCCCC2)CC(=O)N(C)CC(=O)N1C [DP-147] ([Sar][NMeI]A[NMeL][NMeF]T[NMeF][NMeL][NMeL]D-Piperidide; lactam N-10)
147
CC[C@H](C)[C@H]1C(=O)N(C)CC(=O)N(C)[C@@H](Cc2ccccc2)C(=O)N[C@H](C(=O)N2CCCCC2)CC(=O)N(C)CCC(=O)N(C)[C@@H](C(C)C)C(=O)N(C)[C@@H](CC(C)C)C(=O)N[C@@H](CC(C)C)C(=O)N[C@@H]([C@@H](C)O)C(=O)N(C)[C@@H](C)C(=O)N[C@@H](Cc2ccccc2)C(=O)N1C [DP-68] ([NMeβAla][NMeV][NMeL]LT[NMeA]F[NMeI][Sar][NMeF]D-Piperidide; lactam N-11)
35
CC[C@H](C)[C@H]1C(=O)N[C@H](C(=O)N2CCCCC2)CC(=O)N[C@H](C(C)C)C(=O)N[C@@H]([C@@H](C)O)C(=O)N(C)CC(=O)N[C@@H](CC(C)C)C(=O)N2CCC[C@H]2C(=O)N(C)[C@@H](C(C)C)C(=O)N[C@@H](Cc2ccccc2)C(=O)N(C)[C@@H](Cc2ccccc2)C(=O)N(C)[C@@H](CC(C)C)C(=O)N[C@@H](C)C(=O)N1C [DP-56] ([dV]T[Sar]LP[NMeV]F[NMeF][NMeL]A[NMeI]D-Piperidide; lactam N-12)
43
CCN1C(=O)[C@H](Cc2ccccc2)N(C)C(=O)CN(C)C(=O)[C@H]([C@@H](C)O)NC(=O)[C@H](C)N(C)C(=O)C[C@@H](C(=O)N2CCCCC2)NC(=O)[C@H](C(C)C)N(C)C(=O)[C@H](C)NC(=O)[C@H](CC(C)C)N(C)C(=O)[C@@H]2CCCN2C(=O)[C@H](CC(C)C)N(C)C(=O)[C@@H]1Cc1ccccc1 [DP-632] ([NMeA]T[Sar][NMeF][NEtPhe][NMeL]P[NMeL]A[NMeV]D-Piperidide; lactam N-11)
41
